- Assay Explanation: Cytotoxicity against human PBMC assessed as reduction in viable cells measured after 24 hrs by Hoechst-33258 staining-based FACS analysis
- Type: toxicity, cell-based

Structure Smiles | EC50 at 24 h / µM
CCCCCC(=O)C1=C(O)C(=O)c2c(O)c(O)cc(O)c2C1=O | 56.1

---

- Assay Explanation: Cytotoxicity against B lymphocytes in human PBMC population assessed as reduction in viable cells measured after 24 hrs by Hoechst-33258 staining-based FACS analysis
- Format: toxicity, cell-based, B-cell
Observation Type: EC50 at 24 h

Structure Smiles | Endpoint Result
CCCCCC(=O)C1=C(O)C(=O)c2c(O)c(O)cc(O)c2C1=O | > 50 µM

---

- Assay Explanation: Cmax in human
- Format: ADME

Compound | Cmax
CN(Cc1cnc2nc(N)nc(N)c2n1)c1ccc(C(=O)N[C@@H](CCC(=O)O)C(=O)O)cc1 [METHOTREXATE] | > 1000 µM

---

- Assay Explanation: Cytotoxicity against CD3+ T-lymphocytes in human PBMC population assessed as reduction in viable cells measured after 24 hrs by Hoechst-33258 staining-based FACS analysis
- Assay type: toxicity, cell-based, T-cell
Observation Type: EC50 at 24 h (µM)

Structure Smiles | Observation Type | Quantity Unit | Endpoint Result
CCCCCC(=O)C1=C(O)C(=O)c2c(O)c(O)cc(O)c2C1=O | EC50 at 24 h | µM | 65.7
